Consider the following molecules and their measured EC50 readings.
Tested target: Rev-Erb alpha (Homo sapiens, UniProt P20393)
Sequence (P20393 284-614 limits assumed): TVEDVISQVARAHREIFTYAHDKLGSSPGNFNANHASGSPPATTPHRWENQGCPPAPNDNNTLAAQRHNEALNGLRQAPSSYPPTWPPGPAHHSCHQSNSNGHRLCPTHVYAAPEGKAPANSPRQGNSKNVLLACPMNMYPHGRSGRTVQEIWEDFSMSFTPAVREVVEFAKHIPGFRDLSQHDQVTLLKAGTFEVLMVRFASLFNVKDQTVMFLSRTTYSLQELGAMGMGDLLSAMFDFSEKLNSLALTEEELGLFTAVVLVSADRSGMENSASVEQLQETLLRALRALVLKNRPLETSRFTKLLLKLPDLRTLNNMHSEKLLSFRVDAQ
Test details: M2H (mammalian two-hybrid) cellular activation assay of Rev-Erb alpha
Format: cell-based
Condition info: M2H assay, HEK293 cells, Gal4-Rev-Erb alpha / VP16-NCoR, luciferase reporter
Counter-ions that a name gives are not always drawn.

Take a look at these entries with their results.
Molecule: Cc1ccc(-c2ccc(C(F)(F)F)cc2Oc2cc(C)c3nnc(Cl)n3n2)cn1 [Cpd.5-16]
Tested target: Rev-Erb alpha (Homo sapiens, UniProt P20393)
EC50: 100 to 1000 nM
--
Molecule: O=C(c1ccccc1)c1cc(Br)ccc1Oc1ccc2nnc(Cl)n2n1 [Cpd.4-145]
Tested target: Rev-Erb alpha (Homo sapiens, UniProt P20393)
EC50: 1000 to 6000 nM
--
Molecule: Cc1nc(-c2ccc(-c3ccccc3)c(Oc3ccc4nnc(Cl)n4n3)c2)no1 [Cpd.4-197]
Tested target: Rev-Erb alpha (Homo sapiens, UniProt P20393)
EC50: 100 to 1000 nM

Write down the reported EC50 (system: Rev-Erb alpha (Homo sapiens, UniProt P20393)) of COc1ncc(-c2ccc(C(F)(F)F)cc2Oc2cc(C)c3nnc(Cl)n3n2)c(OC)n1 [Cpd.5-50]
1000 to 6000 nM

Write down the reported EC50 (system: Rev-Erb alpha (Homo sapiens, UniProt P20393)) of Clc1nnc2ccc(Oc3cc(CNC4CC4)ccc3-c3ccccc3)nn12 [Cpd.4-178]
1000 to 6000 nM

Write down the reported EC50 (system: Rev-Erb alpha (Homo sapiens, UniProt P20393)) of COc1ccc(-c2ccccc2)c(Oc2ccc3nnc(Cl)n3n2)c1 [Cpd.4-6]
100 to 1000 nM

Write down the reported EC50 (system: Rev-Erb alpha (Homo sapiens, UniProt P20393)) of CN(C)c1ccc(-c2ccccc2)c(Oc2ccc3nnc(Cl)n3n2)c1 [Cpd.4-45]
< 100 nM

Write down the reported EC50 (system: Rev-Erb alpha (Homo sapiens, UniProt P20393)) of Cc1ccc2c(c1)c(Oc1cc(C(F)(F)F)ccc1-c1ccccc1)nn1c(Cl)nnc21 [Cpd.5-10]
100 to 1000 nM

Write down the reported EC50 (system: Rev-Erb alpha (Homo sapiens, UniProt P20393)) of NCc1ccc(Oc2ccc3nnc(Cl)n3n2)c(-c2ccccc2)c1 [Cpd.4-171, trifluoroacetic acid salt]
> 6000 nM

Write down the reported EC50 (system: Rev-Erb alpha (Homo sapiens, UniProt P20393)) of Fc1ccccc1-c1cccc(Oc2ccc3nnc(Cl)n3n2)c1 [Cpd.3-10]
100 to 1000 nM

Write down the reported EC50 (system: Rev-Erb alpha (Homo sapiens, UniProt P20393)) of Cc1cc2nnc(C(F)(F)F)n2nc1Oc1cc(C(F)(F)F)ccc1-c1cccnc1 [Cpd.5-33]
1000 to 6000 nM

Write down the reported EC50 (system: Rev-Erb alpha (Homo sapiens, UniProt P20393)) of COc1ccc(Oc2ccc3nnc(Cl)n3n2)c(-c2ccccc2)c1 [Cpd.4-14]
100 to 1000 nM

Write down the reported EC50 (system: Rev-Erb alpha (Homo sapiens, UniProt P20393)) of Clc1nnc2ccc(Oc3ccccc3-c3ccsc3)nn12 [Cpd.4-108]
100 to 1000 nM

Write down the reported EC50 (system: Rev-Erb alpha (Homo sapiens, UniProt P20393)) of Clc1ccc(Oc2nn3c(Cl)nnc3c3ccccc23)c(-c2cncnc2)c1 [Cpd.5-60]
100 to 1000 nM

Write down the reported EC50 (system: Rev-Erb alpha (Homo sapiens, UniProt P20393)) of FC(F)(F)c1nnc2ccc(Oc3ccccc3Cc3ccccc3)nn12 [Cpd.4-5]
1000 to 6000 nM

Write down the reported EC50 (system: Rev-Erb alpha (Homo sapiens, UniProt P20393)) of CCOc1ccc(Oc2ccc3nnc(Cl)n3n2)c(-c2ccccc2)c1 [Cpd.4-139]
100 to 1000 nM

Write down the reported EC50 (system: Rev-Erb alpha (Homo sapiens, UniProt P20393)) of COc1ncc(-c2cc(Cl)ccc2Oc2nn3c(Cl)nnc3cc2C)cn1 [Cpd.5-56]
1000 to 6000 nM

Write down the reported EC50 (system: Rev-Erb alpha (Homo sapiens, UniProt P20393)) of COc1ccc(-c2ccccc2Oc2ccc3nnc(Cl)n3n2)cc1 [Cpd.4-22]
100 to 1000 nM

All figures here come from patent US9586963B2.
